system: PfAP2-LT AP2 domain (GST-tagged); assay: gcPBM binding intensity (ln(normalized median fluorescence intensity)); higher = stronger DNA binding
Whole data set: some 25,000 sequences, median “ln(normalized median fluorescence intensity)” near 8.9, cut for the highest 2% near 10. This excerpt belongs to a sample that is enriched for the highest values.
Quantity Kind: gcPBM binding intensity (ln)

Biosequence | Value
CAATTAAACAATTAAACATGCAAAATGATATAATAA [TGCATGCA_site240] | 8.87
ACATATATATATAAATATATATATATATAAATATAT [CACACA_negctrl_site895] | 9.03
GGATTTTAATGAACACGTACATAAAATTAAATAAAT [XGTACX_site7023] | 8.73
ATATAACTTTTAAAAGCATGCAAATATTTACTCAAT [TGCATGCA_site396] | 8.78
ATATTATATTATATAACACACATTTTTCATAACACT [CACACA_site407] | 8.95
AAAAAAAAAAAAAAAACACACATACATACATACATA [CACACA_site6125] | 9.26
TACTTCATTCATTTTACACACATATAAACCCTTTTA [CACACA_site3229] | 9.15
TGGAGATTTTTAAAGACACACAGGTAAGAATAATAA [CACACA_site1582] | 8.77
ACTCTCTTATATTAAACACACATATATATATGTATA [CACACA_site2703] | 8.99
TTGTTTCAAAATTAAACACACACAAAAAAAAAAAAA [CACACA_site8856] | 8.86
